Consider the following compounds and their measured pIC50 readings.
# ASSAY REMARKS: Cytotoxicity against human HepG2 cells assessed as cell growth inhibition
# Type: toxicity, cell-based
# ASSAY SETUP: HepG2 cells
Where a name gives a salt, the structure may show the parent alone.
Scale for pIC50: -log10 of concentration given in mol/L; no unit attached.

CCC[C@@H]1Cc2cc3c(c(O)c2C(=O)O1)-c1c(c(OC)c2oc4ccc(O[C@H]5C[C@@H](O)[C@H](O[C@H]6C[C@@H](O)[C@H](O[C@H]7C[C@@H](OC)[C@H](O)[C@@H](C)O7)[C@@H](C)O6)[C@@H](C)O5)c(O)c4c(=O)c2c1O)[C@H](O)[C@H]3O ... 5.10
COc1cccc2c1C(=O)c1c(O)c3c(c(O)c1C2=O)C[C@@](O)(C(=O)CO)C[C@@H]3O[C@H]1C[C@H](N)[C@H](O)[C@H](C)O1 [DOXORUBICIN HYDROCHLORIDE] ... 5.51
CCC[C@@H]1Cc2cc3c(c(O)c2C(=O)O1)-c1c(c(OC)c2oc4ccc(O)c(O)c4c(=O)c2c1O)[C@H](O)[C@H]3O ... 4.89

## Task Read the entry CCC[C@@H]1Cc2cc3c(c(O)c2C(=O)O1)-c1c(c(OC)c2oc4ccc(O[C@H]5C[C@@H](O)[C@H](O)[C@@H](C)O5)c(O)c4c(=O)c2c1O)[C@H](O)[C@H]3O and write its reported pIC50.
## Result 4.51

## Task Give the value of pIC50 reported for the following: CCC[C@@H]1Cc2cc3c(c(O)c2C(=O)O1)-c1c(c(OC)c2oc4ccc(O[C@H]5C[C@@H](O)[C@H](O[C@H]6C[C@@H](O)[C@H](O[C@H]7C[C@@H](O)[C@H](O)[C@@H](C)O7)[C@@H](C)O6)[C@@H](C)O5)c(O)c4c(=O)c2c1O)[C@H](O)[C@H]3O
## Result 5.36

## Task Name the recorded pIC50 of the item CCC[C@@H]1Cc2cc3c(c(O)c2C(=O)O1)-c1c(c(OC)c2oc4ccc(O[C@H]5C[C@@H](O)[C@H](O[C@H]6C[C@@H](O)[C@H](O[C@H]7C[C@@H](OC)[C@H](O)[C@@H](C)O7)[C@@H](C)O6)[C@@H](C)O5)c(O)c4c(=O)c2c1O)C[C@H]3O in your answer.
## Result 6.60

----------
Recorded MIC values for a group of molecules are listed next.
# System: Staphylococcus aureus
# ASSAY REMARKS: Antibacterial activity against methicillin-resistant Staphylococcus aureus 991 assessed as bacterial growth inhibition incubated for 16 hrs by broth microdilution method
# Assay type: functional
Could you give me the number in µg/mL? Just the number is fine.

CCC[C@@H]1Cc2cc3c(c(O)c2C(=O)O1)-c1c(c(OC)c2oc4ccc(O[C@H]5C[C@@H](O)[C@H](O)[C@@H](C)O5)c(O)c4c(=O)c2c1O)[C@H](O)[C@H]3O ... 2
CCC[C@@H]1Cc2cc3c(c(O)c2C(=O)O1)-c1c(c(OC)c2oc4ccc(O[C@H]5C[C@@H](O)[C@H](O[C@H]6C[C@@H](O)[C@H](O[C@H]7C[C@@H](O)[C@H](O)[C@@H](C)O7)[C@@H](C)O6)[C@@H](C)O5)c(O)c4c(=O)c2c1O)[C@H](O)[C@H]3O ... 2
CCC[C@@H]1Cc2cc3c(c(O)c2C(=O)O1)-c1c(c(OC)c2oc4ccc(O[C@H]5C[C@@H](O)[C@H](O[C@H]6C[C@@H](O)[C@H](O[C@H]7C[C@@H](OC)[C@H](O)[C@@H](C)O7)[C@@H](C)O6)[C@@H](C)O5)c(O)c4c(=O)c2c1O)C[C@H]3O ... 0.5
CCC[C@@H]1Cc2cc3c(c(O)c2C(=O)O1)-c1c(c(OC)c2oc4ccc(O)c(O)c4c(=O)c2c1O)[C@H](O)[C@H]3O ... 8
CCCC(=O)Cc1cc2c(c(O)c1C(=O)O)-c1cc3c(c(O)c1CC2)C(=O)c1c(O)cc(O)cc1C3=O ... 16

Alright, here's another molecule for you.
## Task Find the measured MIC of CCC[C@@H]1Cc2cc3c(c(O)c2C(=O)O1)-c1c(c(OC)c2oc4ccc(O[C@H]5C[C@@H](O)[C@H](O[C@H]6C[C@@H](O)[C@H](O[C@H]7C[C@@H](OC)[C@H](O)[C@@H](C)O7)[C@@H](C)O6)[C@@H](C)O5)c(O)c4c(=O)c2c1O)[C@H](O)[C@H]3O and report it.
## Result 1

----------
# ASSAY REMARKS: Cytotoxicity against human MCF7 cells assessed as cell growth inhibition
# Type: toxicity, cell-based
# ASSAY SETUP: MCF7 cells
Reported pIC50 values follow for various molecules
Reminder that pIC50 is minus the log10 of a molar concentration.

Use these answered entries as a reference point.
CCC[C@@H]1Cc2cc3c(c(O)c2C(=O)O1)-c1c(c(OC)c2oc4ccc(O)c(O)c4c(=O)c2c1O)[C@H](O)[C@H]3O ... 6.34
CCC[C@@H]1Cc2cc3c(c(O)c2C(=O)O1)-c1c(c(OC)c2oc4ccc(O[C@H]5C[C@@H](O)[C@H](O)[C@@H](C)O5)c(O)c4c(=O)c2c1O)[C@H](O)[C@H]3O ... 6.12
CCC[C@@H]1Cc2cc3c(c(O)c2C(=O)O1)-c1c(c(OC)c2oc4ccc(O[C@H]5C[C@@H](O)[C@H](O[C@H]6C[C@@H](O)[C@H](O[C@H]7C[C@@H](OC)[C@H](O)[C@@H](C)O7)[C@@H](C)O6)[C@@H](C)O5)c(O)c4c(=O)c2c1O)[C@H](O)[C@H]3O ... 5.39

## Task Answer with reported pIC50 of CCC[C@@H]1Cc2cc3c(c(O)c2C(=O)O1)-c1c(c(OC)c2oc4ccc(O[C@H]5C[C@@H](O)[C@H](O[C@H]6C[C@@H](O)[C@H](O[C@H]7C[C@@H](O)[C@H](O)[C@@H](C)O7)[C@@H](C)O6)[C@@H](C)O5)c(O)c4c(=O)c2c1O)[C@H](O)[C@H]3O
## Result 5.74

## Task # return recorded pIC50 for entry CCC[C@@H]1Cc2cc3c(c(O)c2C(=O)O1)-c1c(c(OC)c2oc4ccc(O[C@H]5C[C@@H](O)[C@H](O[C@H]6C[C@@H](O)[C@H](O[C@H]7C[C@@H](OC)[C@H](O)[C@@H](C)O7)[C@@H](C)O6)[C@@H](C)O5)c(O)c4c(=O)c2c1O)C[C@H]3O
## Result 6.92
